The entries that follow carry IC50 values tested on Coagulation factor X (Homo sapiens, UniProt P00742), drawn from several published reports.
Numbers only, in nM.

Past entries and their recorded results:
COc1ccc(-c2ccc(C(=O)N[C@H](CO)C(C)(C)C)cc2C(=O)O)c(C(=O)Nc2ccc3c(N)nccc3c2)n1 270
COC(=O)C[C@@H]1C(=O)N(CC(=O)N[C@@H](CCCNC(=N)N)C(=O)c2nccs2)CCN1S(=O)(=O)Cc1ccccc1 8
CN(C)CCN(C)Cc1ccc(C(=O)Nc2ccc(Cl)cc2C(=O)Nc2ccc(Cl)cn2)cc1 6.9

For the next question, use this compound.
Provide value of IC50 for this record tested with Coagulation factor X (Homo sapiens, UniProt P00742): CC(C)CNC(=O)c1ccc(-c2ccc(-c3cscc3CO)cc2C(=O)Nc2ccc(C(=N)N)cc2)c(C(=O)O)c1
130

###

Here, compounds appear alongside pIC50 reported for Coagulation factor X (Homo sapiens) in the literature.
Answers are plain numbers, as −log10 of the molar value.

Use these answered entries as a reference point.
Compound	Target of assay	pIC50
O=C(c1nc2c(s1)CNCC2)N1CCN(S(=O)(=O)c2ccc3cc(Cl)ccc3c2)CC1	Coagulation factor X (Homo sapiens)	7.22
Cc1cc(C(=O)Nc2ccc(N3CCNCCC3=O)cc2)n(-c2ccc3cc(Cl)ccc3c2)n1	Coagulation factor X (Homo sapiens)	6.89
CC(C)CNC(=O)c1ccc(-c2ccc(-c3sccc3CO)cc2C(=O)Nc2ccc(C(=N)N)cc2)c(C(=O)O)c1	Coagulation factor X (Homo sapiens)	6.19
CN(C)C(=N)c1ccc(C(=O)Nc2cc(Cl)ccc2C(=O)Nc2ccc(Cl)cn2)cc1	Coagulation factor X (Homo sapiens)	8.70
N#C/N=C(\Nc1ccc2occc2c1)N[C@H]1CCCCN(CC(=O)N2CCCC2)C1=O	Coagulation factor X (Homo sapiens)	7.08

Here are 8 compounds. What values of pIC50 were reported for them?
1. Cc1cccc(S(=O)(=O)N2CCC(N(Cc3ccc4ccc(C(=N)N)cc4c3)S(C)(=O)=O)CC2)c1
2. Cc1ccc(NC(=O)c2ccc(C(=N)N(C)C)cc2)c(C(=O)Nc2ccc(Cl)cn2)c1
3. O=C(Nc1ccc(Cl)cc1C(=O)Nc1ccc(Cl)cn1)c1ccc(C[n+]2ccccc2)cc1
4. COc1ccc2c(c1)C(=O)N(c1ccc(N3CCOCC3=O)cc1)CN2C(=O)CCc1ccc(Cl)cc1
5. CCOC(=O)C(Cc1ccc2ccc(C(=N)N)cc2c1)c1ccc(O[C@H]2CCNC2)cc1 (stereo partly drawn)
6. NC(=O)C[C@H](NC(=O)[C@@H](Cc1ccccc1)NS(=O)(=O)Cc1ccccc1)C(=O)N[C@@H](CCCN=C(N)N)C(=O)c1nccs1
7. COc1ccc(NC(=O)c2ccc(N3CCCC3=O)cc2)c(C(=O)Nc2ccc(Cl)cc2)c1
8. N=C(N)c1cccc(OC(C(=O)Nc2ccc(-c3ccccc3S(N)(=O)=O)cc2Br)c2ccccc2)c1 (stereo not drawn)

1. 6.60
2. 9.15
3. 8.24
4. 5.66
5. 6.51
6. 5.68
7. 6.19
8. 8.49

What does the data say about its pIC50? Entry: CN(C(=O)CCS(=O)(=O)c1ccc2cc(Cl)ccc2c1)C1CCN(c2ccncc2)CC1
7.30

###

Here's a roundup of pIC50 values tested on Coagulation factor X (Homo sapiens, UniProt P00742), taken from various published works.
Give bare numbers, as −log10 of the molar value.

Compound	pIC50
CC(C)CNC(=O)c1ccc(Oc2nc(Oc3cccc(C(=N)N)c3)c(F)c(NC(C)CCc3ccccc3)c2F)c(C(=O)O)c1 (centres undefined)	5.02

Dear reader, for each entry below, please note its pIC50.
1. CCOC(=O)[C@]1(C)CCC[C@@]2(C)[C@@H]3CC[C@@]4(C)C[C@]3(CC[C@@H]21)C/C4=N\NC(=S)Nc1ccc(C(F)(F)F)cc1
2. CN(C(=O)[C@@H]1Cc2ccccc2CN1C(=O)Cc1ccc(Cl)cc1)c1ccc(N2CCCCC2=O)cc1

1. 5.06
2. 5.89
